Test details: Inhibition of Enterococcus faecalis DNA topoisomerase 4 subunit B using ATP as substrate assessed as release of inorganic phosphate incubated for 10 mins prior to substrate addition measured after 30 mins by spectrophotometric analysis
Threshold check on Ki: strictly below 0.02 µM is Fulfilled; on or above 0.02 µM is Not fulfilled.

-- ask In plain terms, does CCc1[nH]c2nc(Sc3cccnc3)nc(Cl)c2c1Cl come in under 0.02 µM for Ki?
-- reply Not fulfilled

-- ask In plain terms, does CCc1[nH]c2nc(Sc3ccc4c(c3)C(=O)NC4)nc(N3CC[C@@H](N)C3)c2c1Cl come in under 0.02 µM for Ki?
-- reply Fulfilled

-- ask In plain terms, does CCc1[nH]c2nc(Sc3cnc4nccnc4c3)nc(N3C[C@H]4CCCN[C@H]4C3)c2c1Cl come in under 0.02 µM for Ki?
-- reply Not fulfilled

-- ask In plain terms, does CCc1[nH]c2nc(Sc3cnc4ncc(=O)[nH]c4c3)nc(N3CC[C@@H](N)C3)c2c1Cl come in under 0.02 µM for Ki?
-- reply Fulfilled

-- ask In plain terms, does CCc1[nH]c2nc(Oc3cncnc3)nc(N3CC[C@@H](N)C3)c2c1Cl come in under 0.02 µM for Ki?
-- reply Not fulfilled

-- ask In plain terms, does CCc1[nH]c2nc(Oc3cnc4cccnc4c3)nc(N3CC4C(N)C4C3)c2c1Cl (centres undefined) come in under 0.02 µM for Ki?
-- reply Fulfilled

-- ask In plain terms, does CCc1[nH]c2nc(Sc3ccc4c(N5CCC(N)C5)cc(C(=O)O)nc4c3)nc(N3CC[C@@H](N)C3)c2c1Cl (some centres undefined) come in under 0.02 µM for Ki?
-- reply Fulfilled

-- ask In plain terms, does CCc1[nH]c2nc(Sc3cccnc3)nc(Cl)c2c1C(C)=O come in under 0.02 µM for Ki?
-- reply Not fulfilled

-- ask In plain terms, does CCc1[nH]c2nc(Sc3cnc4nccnc4c3)nc(N3C[C@H]4CN[C@H]4C3)c2c1Cl come in under 0.02 µM for Ki?
-- reply Fulfilled

----------
Test details: Inhibition of Enterococcus faecalis DNA topoisomerase 4 subunit B using ATP as substrate assessed as release of inorganic phosphate incubated for 10 mins prior to substrate addition measured after 30 mins by spectrophotometric analysis
pKi: −log10 of the molar value.
Values of pKi greater than or equal to 8 map to Criterion met; values below map to Criterion not met.

-- ask Reported pKi at or above 8? CCc1[nH]c2nc(Sc3cnc4nccnc4c3)nc(N3CC4C(N)C4C3)c2c1Cl (centres undefined)
-- reply Criterion met

-- ask Reported pKi at or above 8? CCc1[nH]c2nc(Sc3cnc4nccnc4c3)nc(N3C[C@H]4CCN[C@H]4C3)c2c1Cl
-- reply Criterion not met

-- ask Reported pKi at or above 8? CCc1[nH]c2nc(Sc3cccnc3)nc(Cl)c2c1C=O
-- reply Criterion not met

-- ask Reported pKi at or above 8? CCc1[nH]c2nc(Sc3ccc4ccc(C(=O)O)nc4c3)nc(N3CC[C@@H](N)C3)c2c1Cl
-- reply Criterion met

-- ask Reported pKi at or above 8? CCc1[nH]c2nc(Sc3cnc4ccc[n+]([O-])c4c3)nc(N3CC[C@@H](N)C3)c2c1Cl
-- reply Criterion met

-- ask Reported pKi at or above 8? CCc1[nH]c2nc(Sc3cnc4nccnc4c3)nc(N3CCC(N)CC3)c2c1Cl
-- reply Criterion not met

-- ask Reported pKi at or above 8? CCc1[nH]c2nc(Sc3ccc4cccnc4c3)nc(N3CC[C@@H](N)C3)c2c1Cl
-- reply Criterion not met

-- ask Reported pKi at or above 8? CCc1[nH]c2nc(Sc3cccnc3)nc(Cl)c2c1C(F)F
-- reply Criterion not met

-- ask Reported pKi at or above 8? CCc1[nH]c2nc(Sc3cncnc3)nc(N3CC4C(N)C4C3)c2c1Cl (centres undefined)
-- reply Criterion not met

-- ask Reported pKi at or above 8? CCc1[nH]c2nc(Sc3cnc4nccnc4c3)nc(N3CC[C@@H](N)C3)c2c1Cl
-- reply Criterion not met

-- ask Reported pKi at or above 8? CCc1[nH]c2nc(Sc3cccnc3)nc(Cl)c2c1Br
-- reply Criterion not met

-- ask Reported pKi at or above 8? CCc1[nH]c2nc(Sc3cnc4nccnc4c3)nc(N3CC(N)C3)c2c1Cl
-- reply Criterion not met

-- ask Reported pKi at or above 8? CCc1[nH]c2nc(Sc3cccnc3)nc(OC)c2c1C=O
-- reply Criterion not met

-- ask Reported pKi at or above 8? CCc1[nH]c2nc(Sc3cnc4cccnc4c3)nc(N3CC[C@@H](N)C3)c2c1Cl
-- reply Criterion met

-- ask Reported pKi at or above 8? CCc1[nH]c2nc(Sc3cncnc3)nc(N3CC[C@@H](N)C3)c2c1Cl
-- reply Criterion not met

-- ask Reported pKi at or above 8? CCc1[nH]c2nc(Sc3cnc4[nH][nH]c(=O)c4c3)nc(N3CC[C@@H](N)C3)c2c1Cl
-- reply Criterion not met

-- ask Reported pKi at or above 8? CCc1[nH]c2nc(Sc3ccc4cc5c(nc4c3)C(=O)OC5)nc(N3CC[C@@H](N)C3)c2c1Cl
-- reply Criterion met

----------
Test details: Inhibition of Escherichia coli DNA topoisomerase 4 subunit B using ATP as substrate assessed as release of inorganic phosphate incubated for 10 mins prior to substrate addition measured after 30 mins by spectrophotometric analysis
Metric: pKi
Please express pKi as -log10 of the molar concentration.

-- ask What does the data say about its pKi? Entry: CCc1[nH]c2nc(Sc3cnc4nccnc4c3)nc(N3CC(N)C3)c2c1Cl
-- reply 7.41

-- ask What does the data say about its pKi? Entry: CCc1[nH]c2nc(Sc3cnc4nccnc4c3)nc(N3CCC(N)CC3)c2c1Cl
-- reply 7.44

-- ask What does the data say about its pKi? Entry: CCc1[nH]c2nc(Sc3cnc4ncc(=O)[nH]c4c3)nc(N3CC[C@@H](N)C3)c2c1Cl
-- reply 7.96

-- ask What does the data say about its pKi? Entry: CCc1[nH]c2nc(Sc3cnc4nccnc4c3)nc(N3C[C@H]4CCN[C@H]4C3)c2c1Cl
-- reply 8.22

-- ask What does the data say about its pKi? Entry: CCc1[nH]c2nc(Sc3cncnc3)nc(N3CC4C(N)C4C3)c2c1Cl (stereo not drawn)
-- reply 7.44

-- ask What does the data say about its pKi? Entry: CCc1[nH]c2nc(Sc3cnc4cccnc4c3)nc(N3CC4C(N)C4C3)c2c1Cl (stereo not drawn)
-- reply 9.00

-- ask What does the data say about its pKi? Entry: CCc1[nH]c2nc(Sc3ccc4ccc(C(=O)O)nc4c3)nc(N3CC[C@@H](N)C3)c2c1Cl
-- reply 8.70

-- ask What does the data say about its pKi? Entry: CCc1[nH]c2nc(Sc3ccc4cncnc4c3)nc(N3CC[C@@H](N)C3)c2c1Cl
-- reply 8.30

-- ask What does the data say about its pKi? Entry: CCc1[nH]c2nc(Sc3ccc4c(N5CCC(N)C5)cc(C(=O)O)nc4c3)nc(N3CC[C@@H](N)C3)c2c1Cl (stereo partly drawn)
-- reply 8.15

-- ask What does the data say about its pKi? Entry: CCc1[nH]c2nc(Oc3cncnc3)nc(N3CC4C(N)C4C3)c2c1Cl (stereo not drawn)
-- reply 8.40

-- ask What does the data say about its pKi? Entry: CCc1[nH]c2nc(Sc3cnc4nccnc4c3)nc(N3CC[C@@H](N)C3)c2c1Cl
-- reply 7.96

-- ask What does the data say about its pKi? Entry: CCc1[nH]c2nc(Sc3cnc4ccc[n+]([O-])c4c3)nc(N3CC[C@@H](N)C3)c2c1Cl
-- reply 8.30

-- ask What does the data say about its pKi? Entry: CCc1[nH]c2nc(Sc3cnc4[nH][nH]c(=O)c4c3)nc(N3CC[C@@H](N)C3)c2c1Cl
-- reply 8.22

-- ask What does the data say about its pKi? Entry: CCc1[nH]c2nc(Sc3ccc4nc(N)n[n+]([O-])c4c3)nc(N3CC[C@@H](N)C3)c2c1Cl
-- reply 8.70

-- ask What does the data say about its pKi? Entry: CCc1[nH]c2nc(Oc3cncnc3)nc(N3CC[C@@H](N)C3)c2c1Cl
-- reply 7.42

-- ask What does the data say about its pKi? Entry: CCc1[nH]c2nc(Sc3ccc4c(c3)C(=O)NC4)nc(N3CC[C@@H](N)C3)c2c1Cl
-- reply 7.96

-- ask What does the data say about its pKi? Entry: CCc1[nH]c2nc(Sc3ccc4nc[nH]c(=O)c4c3)nc(N3CC[C@@H](N)C3)c2c1Cl
-- reply 8.40

-- ask What does the data say about its pKi? Entry: CCc1[nH]c2nc(Sc3ccc4cccnc4c3)nc(N3CC[C@@H](N)C3)c2c1Cl
-- reply 7.10

----------
Please go through the items and note down their pKi.
Test details: Inhibition of Enterococcus faecalis DNA topoisomerase 4 subunit B using ATP as substrate assessed as release of inorganic phosphate incubated for 10 mins prior to substrate addition measured after 30 mins by spectrophotometric analysis
Please express pKi as -log10 of the molar concentration.

-- ask What does the data say about its pKi? Entry: CCc1[nH]c2nc(Sc3ccc4[nH]cc(C(=O)O)c(=O)c4c3)nc(N3CC[C@@H](N)C3)c2c1Cl
-- reply 8.22

-- ask What does the data say about its pKi? Entry: CCc1[nH]c2nc(Sc3ccc4cncnc4c3)nc(N3CC[C@@H](N)C3)c2c1Cl
-- reply 8.15

-- ask What does the data say about its pKi? Entry: CCc1[nH]c2nc(Sc3ccc4nc(N)n[n+]([O-])c4c3)nc(N3CC[C@@H](N)C3)c2c1Cl
-- reply 8.15

-- ask What does the data say about its pKi? Entry: CCc1[nH]c2nc(Sc3cnc4cccnc4c3)nc(N3CC4C(N)C4C3)c2c1Cl (configuration not stated)
-- reply 8.00

-- ask What does the data say about its pKi? Entry: CCc1[nH]c2nc(Sc3ccc4ccc[n+]([O-])c4c3)nc(N3CC[C@@H](N)C3)c2c1Cl
-- reply 7.82

-- ask What does the data say about its pKi? Entry: CCc1[nH]c2nc(Oc3cncnc3)nc(N3CC4C(N)C4C3)c2c1Cl (configuration not stated)
-- reply 8.00

-- ask What does the data say about its pKi? Entry: CCc1[nH]c2nc(Sc3ccc4nc[nH]c(=O)c4c3)nc(N3CC[C@@H](N)C3)c2c1Cl
-- reply 7.85

Where do the numbers come from? From ChEMBL document CHEMBL2331411.
